Kindly supply the reported pKi values for the records listed here.
molecular target: human FXIa (Homo sapiens, UniProt P03951); construct: purchased Haematologic Technologies, Essex Junction, VT, USA; experiment: Inhibition of FXIa in vitro (chromogenic substrate assay); assay type: biochemical; settings: human FXIa, chromogenic substrate BIOPHEN CS-21(66), 37 °C, pH 7.4; Ki = IC50/(1 + [S]/Km); read-out: Ki
Sequence (P03951 388-625 limits assumed): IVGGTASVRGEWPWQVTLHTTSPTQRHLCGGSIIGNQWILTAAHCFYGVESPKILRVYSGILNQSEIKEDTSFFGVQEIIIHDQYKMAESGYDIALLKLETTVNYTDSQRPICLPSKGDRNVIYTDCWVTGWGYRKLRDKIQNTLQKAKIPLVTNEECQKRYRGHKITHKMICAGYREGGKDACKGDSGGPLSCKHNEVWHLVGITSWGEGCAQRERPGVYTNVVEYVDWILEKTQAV
Sequence (P03951 19-387 partner limits assumed): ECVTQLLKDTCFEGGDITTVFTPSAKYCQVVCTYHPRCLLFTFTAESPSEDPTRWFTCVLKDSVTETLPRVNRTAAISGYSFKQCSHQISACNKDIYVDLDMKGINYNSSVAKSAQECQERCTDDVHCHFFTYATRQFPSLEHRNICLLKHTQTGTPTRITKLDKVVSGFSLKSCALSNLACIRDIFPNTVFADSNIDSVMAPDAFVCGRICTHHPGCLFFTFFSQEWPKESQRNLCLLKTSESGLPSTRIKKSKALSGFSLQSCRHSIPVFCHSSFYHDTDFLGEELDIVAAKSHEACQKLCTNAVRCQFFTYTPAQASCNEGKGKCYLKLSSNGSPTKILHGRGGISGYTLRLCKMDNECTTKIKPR
# pKi: negative log10 of molar concentration; output just the value

I have this compound here, Nc1ccc(C[C@H](NC(=O)c2cc(-c3cccc(Cl)c3F)[nH]n2)C(=O)Nc2ccc3[nH]c(C(=O)O)cc3c2)cc1 , and I need its recorded pKi. 5.39

Fill in the blank: the reported pKi of CN1CCN(C(=O)Nc2ccc(C[C@H](NC(=O)c3cc(-c4cccc(Cl)c4F)[nH]n3)C(=O)Nc3ccc4[nH]c(C(=O)O)cc4c3)cc2)CC1 is ____. 5.71

Param item = O=C(O)c1ccc(NC(=O)[C@H](Cc2ccccc2)NC(=O)c2cc(-c3cccc(Cl)c3F)[nH]n2)cc1 ; retrieve measured pKi. 4.53

If you can, please state the reported pKi value of O=C(O)c1ccc(NC(=O)[C@H](Cc2ccccc2)NC(=O)c2cc(-c3c(F)ccc(Cl)c3F)[nH]n2)cc1 . 4.54

Suppose we examine the compound O=C(O)c1ccc(NC(=O)[C@H](Cc2ccccc2)NC(=O)c2cc(-c3cccc(Cl)c3)[nH]n2)cc1 ; what pKi value has been reported? 4.33

# pKi lookup, item Cc1c(C(=O)N[C@@H](Cc2ccccc2)C(=O)Nc2ccc3[nH]c(C(=O)O)cc3c2)n[nH]c1-c1cccc(Cl)c1 5.05

Return reported pKi; argument: NC[C@H]1CC[C@H](C(=O)NC(Cc2ccccc2)c2ncc(-c3ccc4c(N)n[nH]c4c3)[nH]2)CC1 (some centres unmarked) [Compound 4, reference compound] 7.63

Recorded pKi for O=C(O)c1cc2cc(NC(=O)[C@H](Cc3ccccc3)NC(=O)c3cc(-c4c(F)ccc(Cl)c4F)n[nH]3)ccc2[nH]1 , please? 5.08

Would you mind telling me what pKi value was observed for Cc1c(C(=O)N[C@@H](Cc2ccccc2)C(=O)Nc2ccc(C(=O)O)cc2)n[nH]c1-c1cccc(Cl)c1 ? 4.43

What measured pKi goes with O=C(N[C@@H](Cc1ccc(N2CCOCC2=O)cc1)C(=O)Nc1ccc2[nH]c(C(=O)O)cc2c1)c1cc(-c2cccc(Cl)c2F)[nH]n1 ? 5.32

----------
reported_property: melting point

Report melting point for O=C(O)c1ccc(NC(=O)[C@H](Cc2ccccc2)NC(=O)c2cc(-c3ccc(Cl)cc3F)[nH]n2)cc1 [Compound 7g] please. 143 to 145 °C (dec.)

Which value of melting point has been reported for O=C(O)c1ccc(NC(=O)[C@H](Cc2ccccc2)NC(=O)c2cc(-c3c(F)cccc3Cl)[nH]n2)cc1 [Compound 7i] in the records? 203 to 205 °C (dec.)

Name the reported melting point value associated with the compound O=C(O)c1cc2cc(NC(=O)[C@H](CC(=O)N3CCOCC3)NC(=O)c3cc(-c4cccc(Cl)c4F)n[nH]3)ccc2[nH]1 [Compound 7y] 175 to 177 °C (dec.)

Fill blank: measured melting point of the compound O=C(O)c1ccc(NC(=O)[C@H](Cc2ccccc2)NC(=O)c2cc(-c3cc(Cl)ccc3F)[nH]n2)cc1 [Compound 7h] is ____. 179 to 181 °C (dec.)

Which melting point is listed for O=C(O)c1cc2cc(NC(=O)[C@H](Cc3ccncc3)NC(=O)c3cc(-c4cccc(Cl)c4F)n[nH]3)ccc2[nH]1 [Compound 7u] ? 199 to 201 °C (dec.)

Reported melting point, compound Cc1c(C(=O)N[C@@H](Cc2ccccc2)C(=O)Nc2ccc3[nH]c(C(=O)O)cc3c2)n[nH]c1-c1cccc(Cl)c1 [Compound 7q] : ____ 154 to 156 °C (dec.)

// query melting point value for entry O=C(O)c1ccc(NC(=O)[C@H](Cc2ccccc2)NC(=O)c2cc(-c3ccccc3Cl)[nH]n2)cc1 [Compound 7d] 92 to 94 °C (dec.)

Any idea what melting point was measured for Cc1c(C(=O)N[C@@H](Cc2ccccc2)C(=O)Nc2ccc(C(=O)O)cc2)n[nH]c1-c1cccc(Cl)c1 [Compound 7m] ? 164 to 166 °C (dec.)

Which melting point is listed for O=C(O)c1ccc(NC(=O)[C@H](Cc2ccccc2)NC(=O)c2cc(-c3cccc(Cl)c3)[nH]n2)cc1 [Compound 7a] ? 147 to 149 °C (dec.)

Look up melting point: O=C(O)c1cc2cc(NC(=O)[C@H](Cc3ccccn3)NC(=O)c3cc(-c4cccc(Cl)c4F)n[nH]3)ccc2[nH]1 [Compound 7w] 192 to 194 °C (dec.)

Tell me the measured melting point of O=C(O)c1cc2cc(NC(=O)[C@H](Cc3ccc(F)cc3)NC(=O)c3cc(-c4cccc(Cl)c4F)n[nH]3)ccc2[nH]1 [Compound 7s] , please. 186 to 188 °C (dec.)

Entry under review: O=C(N[C@@H](Cc1ccc(N2CCOCC2=O)cc1)C(=O)Nc1ccc2[nH]c(C(=O)O)cc2c1)c1cc(-c2cccc(Cl)c2F)[nH]n1 [Compound 7zc] . Reported melting point? 200 to 202 °C (dec.)

Give the measured melting point of O=C(O)c1ccc(NC(=O)[C@H](Cc2ccccc2)NC(=O)c2cc(-c3c(F)cccc3F)[nH]n2)cc1 [Compound 7j] . 205 to 207 °C (dec.)

Sample CCc1c(C(=O)N[C@@H](Cc2ccccc2)C(=O)Nc2ccc(C(=O)O)cc2)n[nH]c1-c1cccc(Cl)c1 [Compound 7n] — what was its melting point? 126 to 128 °C (dec.)

----------
Please provide measured melting point for the entries that follow.

What does the data say about its melting point? Entry: O=C(O)c1ccc(NC(=O)[C@H](Cc2ccccc2)NC(=O)c2cc(-c3ccccc3)[nH]n2)cc1 [Compound 7b] 137 to 139 °C (dec.)

Return reported melting point; argument: O=C(O)c1cc2cc(NC(=O)[C@H](Cc3ccccc3)NC(=O)c3cc(-c4cccc(Cl)c4F)n[nH]3)ccc2[nH]1 [Compound 7o] 172 to 174 °C (dec.)

What melting point value was documented for this molecule, O=C(O)c1ccc(NC(=O)[C@H](Cc2ccccc2)NC(=O)c2cc(-c3c(F)ccc(Cl)c3F)[nH]n2)cc1 [Compound 7k] ? 129 to 131 °C (dec.)

# input molecule: O=C(O)c1cc2cc(NC(=O)[C@H](Cc3cccc(F)c3)NC(=O)c3cc(-c4cccc(Cl)c4F)n[nH]3)ccc2[nH]1 [Compound 7t] ; wanted: its melting point 174 to 176 °C (dec.)

Name the reported melting point value associated with the molecule O=C(O)c1cc2cc(NC(=O)[C@H](Cc3ccccc3)NC(=O)c3cc(-c4c(F)ccc(Cl)c4F)n[nH]3)ccc2[nH]1 [Compound 7p] 164 to 166 °C (dec.)

Recorded melting point of O=C(O)c1ccc(NC(=O)[C@H](Cc2ccccc2)NC(=O)c2cc(-c3ccccc3F)[nH]n2)cc1 [Compound 7c] , please. 86 to 88 °C (dec.)

Requested read-out: melting point. Entry: Nc1ccc(C[C@H](NC(=O)c2cc(-c3cccc(Cl)c3F)[nH]n2)C(=O)Nc2ccc3[nH]c(C(=O)O)cc3c2)cc1 [Compound 7z] 209 to 211 °C (dec.)

----------
biological target: human FXIa (Homo sapiens, UniProt P03951); construct: purchased Haematologic Technologies, Essex Junction, VT, USA; assay: Inhibition of FXIa in vitro (chromogenic substrate assay); assay type: biochemical; details: Table 1 values; read-out: FXIa inhibitory potency (Ki)
Field: Ki. Provide a value for each of the molecules that follow.
Field: numeric (µM). Do not append units.

Quick one: Ki of O=C(O)c1cc2cc(NC(=O)[C@H](Cc3ccc(F)cc3)NC(=O)c3cc(-c4cccc(Cl)c4F)n[nH]3)ccc2[nH]1 [Compound 7s] ? 0.93

Sample O=C(O)c1cc2cc(NC(=O)[C@H](Cc3cccc(F)c3)NC(=O)c3cc(-c4cccc(Cl)c4F)n[nH]3)ccc2[nH]1 [Compound 7t] — what was its Ki? 1.66

Query (molecule): O=C(O)c1cc2cc(NC(=O)[C@H](Cc3cccnc3)NC(=O)c3cc(-c4cccc(Cl)c4F)n[nH]3)ccc2[nH]1 [Compound 7v] ; field requested: Ki 3.52

Returns the measured Ki for the input molecule. Input: O=C(O)c1cc2cc(NC(=O)[C@H](Cc3ccccc3)NC(=O)c3cc(-c4cccc(Cl)c4F)n[nH]3)ccc2[nH]1 [Compound 7o] 1.97

// query Ki value for entry O=C(O)c1cc2cc(NC(=O)[C@H](Cc3ccccn3)NC(=O)c3cc(-c4cccc(Cl)c4F)n[nH]3)ccc2[nH]1 [Compound 7w] 8.99

Need Ki, item O=C(O)c1cc2cc(NC(=O)[C@H](Cc3ccncc3)NC(=O)c3cc(-c4cccc(Cl)c4F)n[nH]3)ccc2[nH]1 [Compound 7u] 13.3

Entry CC(=O)N1CCN(C(=O)C[C@H](NC(=O)c2cc(-c3cccc(Cl)c3F)[nH]n2)C(=O)Nc2ccc3[nH]c(C(=O)O)cc3c2)CC1 [Compound 7x] has what Ki? 81.2

Which Ki value is on record for O=C(O)c1cc2cc(NC(=O)[C@H](CC(=O)N3CCOCC3)NC(=O)c3cc(-c4cccc(Cl)c4F)n[nH]3)ccc2[nH]1 [Compound 7y] ? 64

# input molecule: NC[C@H]1CC[C@H](C(=O)NC(Cc2ccccc2)c2ncc(-c3ccc4c(N)n[nH]c4c3)[nH]2)CC1 (stereo partly drawn) [Compound 4, reference compound] ; wanted: its Ki 0.0235
